Listing of entries alongside the reported TIMS collisional cross section.
- Method Notes: TIMS collisional cross section (CCS, N2) of the lipid ion; higher = larger ion cross section
- Applied Conditions: sample type: HeLa; ionization mode: positive; one isomer drawn
// note: answer is a bare numeric in Å²

Here is how some compounds turned out for TIMS collisional cross section.
[[record]]
compound = "CC/C=C\\C/C=C\\C/C=C\\C/C=C\\C/C=C\\C/C=C\\CCC(=O)OC[C@@H](COC(=O)CCCCCCCCCCCCC)OC(=O)CCCCCCC/C=C\\CCCCCC [TG 14:0_16:1_22:6] (ion (formula + adduct): [C55H92O6+NH4] 1+)"
assay_endpoint = "TIMS collisional cross section"
observed = 315

[[record]]
compound = "CCCCCCCCCCCCC/C=C/C=C/C(=O)OC[C@@H](O)COP(=O)([O-])OCC[N+](C)(C)C [LPC 18:2_0:0] (ion (formula + adduct): [C26H50NO7P+H] 1+)"
assay_endpoint = "TIMS collisional cross section"
observed = 227.3


// below: TIMS collisional cross section requested for another compound
Query :: Specify reported TIMS collisional cross section for the compound shown: CCCCCC/C=C\CCCCCCCC(=O)OC[C@H](COC(=O)CCCCCCC/C=C\CCCCCCCC)OC(=O)CCCCCCC/C=C\CCCCCCC [TG 16:1_17:1_18:1] (ion (formula + adduct): [C54H98O6+NH4] 1+)
Result :: 316.5

---

- Method Notes: TIMS collisional cross section (CCS, N2) of the lipid ion; higher = larger ion cross section
- Applied Conditions: sample type: Liver; ionization mode: positive; one isomer drawn
The molecules listed here are annotated with their TIMS collisional cross section.
Only the number, expressed in Å², is required.

Solved cases below.
[[record]]
molecule = "CCCCC/C=C\\C/C=C\\C/C=C\\C/C=C\\CCCC(=O)O[C@H](CO/C=C\\CCCCCCCCCCCCCCCC)COP(=O)(O)OCCN [PE P- 18:0@_20:4] (ion (formula + adduct): [C43H78NO7P+H] 1+)"
assay_endpoint = "TIMS collisional cross section"
observed = 281.6

[[record]]
molecule = "OC[C@]([H])(OC(CCC/C=C\\C/C=C\\C/C=C\\C/C=C\\CCCCC)=O)CO [MG 0:0_20:4_0:0] (ion (formula + adduct): [C23H38O4+H] 1+)"
assay_endpoint = "TIMS collisional cross section"
observed = 195.7

[[record]]
molecule = "CCCCCC/C=C\\CCCCCCCC(=O)OC[C@@H](COC(=O)CCCCCCCCCCCC)OC(=O)CCCCCCCCCCCCC [TG 13:0_14:0_16:1] (ion (formula + adduct): [C46H86O6+NH4] 1+)"
assay_endpoint = "TIMS collisional cross section"
observed = 296

[[record]]
molecule = "CCCCC/C=C\\C/C=C\\CCCCCCCC(=O)OC[C@@H](COC(=O)CCCCCCCCCCCCCCC)OC(=O)CCCCCCC/C=C\\CCCCCC [TG 16:0_16:1_18:2] (ion (formula + adduct): [C53H96O6+NH4] 1+)"
assay_endpoint = "TIMS collisional cross section"
observed = 313.45

[[record]]
molecule = "CCCCCCCCCCCCCCCCCCOC[C@@H](O)COP(=O)([O-])OCC[N+](C)(C)C [LPC O- 18:0] (ion (formula + adduct): [C26H56NO6P+H] 1+)"
assay_endpoint = "TIMS collisional cross section"
observed = 238.2


Query :: Report measured TIMS collisional cross section; entry is CCCCCCCCCCCCCCCC(=O)O[C@H](CO)COP(=O)([O-])OCC[N+](C)(C)C [LPC 16:0] (ion (formula + adduct): [C24H50NO7P+H] 1+)
Result :: 229.9

Query :: Note TIMS collisional cross section for the molecule shown: CCCCC/C=C\C/C=C\CCCCCCCC(=O)OC[C@H](COP(=O)(O)OCCN)OC(=O)CCCCCCC/C=C\CCCCCC [PE 18:2_16:1] (ion (formula + adduct): [C39H72NO8P+H] 1+)
Result :: 268.7

Query :: In one line, give reported TIMS collisional cross section of the entry CCCCC/C=C\C/C=C\C/C=C\C/C=C\CCCCCC(=O)O[C@H](CO/C=C\CCCCCCCCCCCCCC)COP(=O)(O)OCCN [PE P- 16:0@_22:4] (ion (formula + adduct): [C43H78NO7P+H] 1+) .
Result :: 281.6

Query :: Entry CCCCCCCC/C=C\CCCCCCCC(=O)OC[C@@H](COC(=O)CCCCCCCCCCCCCCC)OC(=O)CCCCCCC/C=C\CCCCCCCC [TG 16:0_18:1_18:1] (ion (formula + adduct): [C55H102O6+NH4] 1+) needs its TIMS collisional cross section filled in; supply it.
Result :: 322.4

Query :: Determine its reported TIMS collisional cross section: CCCCCCCC/C=C\CCCCCCCCCC(=O)OC[C@@H](COC(=O)CCCCCCCCCCCCCCCC)OC(=O)CCCCCCC/C=C\CCCCCCCC [TG 17:0_18:1_20:1] (ion (formula + adduct): [C58H108O6+NH4] 1+)
Result :: 331.2

Query :: Could you please provide reported TIMS collisional cross section for CCCCCC/C=C\CCCCCCCC(=O)O[C@@H](COC(=O)CCCCCCC/C=C\CCCCCCCC)COC(=O)CCCCCCCCCCCCC [TG 14:0_16:1_18:1] (ion (formula + adduct): [C51H94O6+NH4] 1+) ? Thanks!
Result :: 310.3

Query :: Look up and report measured TIMS collisional cross section for this entry: CCCC/C=C\CCCCCCCC(=O)OC[C@H](COC(=O)CCCCCCC/C=C\CCCCCCC)OC(=O)CCCCCCC/C=C\CCCCCC [TG 14:1_16:1_17:1] (ion (formula + adduct): [C50H90O6+NH4] 1+)
Result :: 305.4

Query :: Assign TIMS collisional cross section to the following record: CCCCC/C=C\C/C=C\C/C=C\C/C=C\CCCC(=O)OC[C@@H](O)COP(=O)(O)OC[C@H](N)C(=O)O [LPS 20:4] (ion (formula + adduct): [C26H44NO9P+H] 1+)
Result :: 221.9

Query :: // Input: CCCCCCCCCCCCCCCCCC(=O)OC[C@@H](O)COP(=O)(O)O[C@H]1C(O)C(O)C(O)[C@@H](O)C1O (some centres undefined) [LPI 18:0] (ion (formula + adduct): [C27H53O12P+H] 1+) . Output its TIMS collisional cross section only.
Result :: 249.1

---

- Method Notes: TIMS collisional cross section (CCS, N2) of the lipid ion; higher = larger ion cross section
- Applied Conditions: sample type: HeLa; ionization mode: positive; one isomer drawn
Each entry below lists one item and its recorded TIMS collisional cross section value.
Just the number please, in Å², no unit attached.

Some compounds with recorded TIMS collisional cross section:
[[record]]
compound = "CCCC/C=C\\CCCCCCCC(=O)OC[C@H](COC(=O)CCCCCCC/C=C\\CCCCCC)OC(=O)CCCCCCCCCCCCCC [TG 14:1_15:0_16:1] (ion (formula + adduct): [C48H88O6+NH4] 1+)"
assay_endpoint = "TIMS collisional cross section"
observed = 300.7

[[record]]
compound = "CCCC/C=C\\CCCCCCCC(=O)OC[C@H](COC(=O)CCCCCCC/C=C\\CCCCCC)OC(=O)CCCCCCC/C=C\\CCCCCC [TG 14:1_16:1_16:1] (ion (formula + adduct): [C49H88O6+NH4] 1+)"
assay_endpoint = "TIMS collisional cross section"
observed = 301.5


Below: the item to evaluate.
Query :: Give TIMS collisional cross section for CCCCC/C=C/C/C=C/C/C=C/C/C=C/CCCC(=O)OC[C@H](COP(=O)([O-])OCC[N+](C)(C)C)OC(=O)CCC/C=C/C/C=C/C/C=C/C/C=C/CCCCC [PC 20:4_20:4] (ion (formula + adduct): [C48H80NO8P+H] 1+)
Result :: 292.7

---

- Method Notes: TIMS collisional cross section (CCS, N2) of the lipid ion; higher = larger ion cross section
- Applied Conditions: sample type: HeLa; ionization mode: positive; one isomer drawn
± gives the standard deviation of the averaged measurements.
Assay Endpoint: TIMS collisional cross section

[[record]]
compound = "CC/C=C\\C/C=C\\C/C=C\\C/C=C\\C/C=C\\C/C=C\\CCC(=O)OC[C@@H](O)COP(=O)([O-])OCC[N+](C)(C)C [LPC 22:6] (ion (formula + adduct): [C30H50NO7P+H] 1+)"
assay_endpoint = "TIMS collisional cross section"
observed = "232.4 Å²"

[[record]]
compound = "CCCCCC/C=C\\CCCCCCCC(=O)OC[C@@H](COC(=O)CCCCCCCCCCCC)OC(=O)CCCCCCCCCCCCCC [TG 13:0_15:0_16:1] (ion (formula + adduct): [C47H88O6+NH4] 1+)"
assay_endpoint = "TIMS collisional cross section"
observed = "299.7 Å²"

[[record]]
compound = "CCCCCCCCCCCCCC(=O)O[C@H](COC(=O)CCCCCCCCCCC)COP(=O)([O-])OCC[N+](C)(C)C [PC 12:0@_14:0] (ion (formula + adduct): [C34H68NO8P+H] 1+)"
assay_endpoint = "TIMS collisional cross section"
observed = "266.9 Å²"

[[record]]
compound = "CCCCCCCCCCCCCCCCCCCC(=O)OC[C@@H](O)COP(=O)(O)OCCN [LPE 20:0] (ion (formula + adduct): [C25H52NO7P+H] 1+)"
assay_endpoint = "TIMS collisional cross section"
observed = "229.2 Å²"

[[record]]
compound = "CCCCCCCC/C=C\\CCCCCCCC(=O)OC[C@@H](COC(=O)CCCCCCCCCCCCC)OC(=O)CCCCCCCCCCCCCCC [TG 14:0_16:0_18:1] (ion (formula + adduct): [C51H96O6+NH4] 1+)"
assay_endpoint = "TIMS collisional cross section"
observed = "311.9 ± 0.14 Å²"

[[record]]
compound = "CC/C=C\\C/C=C\\C/C=C\\C/C=C\\CCCCC(=O)O[C@H](COC(=O)CCCCCCC/C=C\\CCCCCCCC)COP(=O)([O-])OCC[N+](C)(C)C [PC 18:1@_18:4] (ion (formula + adduct): [C44H78NO8P+H] 1+)"
assay_endpoint = "TIMS collisional cross section"
observed = "289.4 Å²"


Query :: Specify TIMS collisional cross section for CCCCCCCCCCCCC/C=C/C=C/C(=O)OC[C@H](COP(=O)([O-])OCC[N+](C)(C)C)OC(=O)/C=C/C=C/CCCCCCCCCCCCC [PC 18:2_18:2] (ion (formula + adduct): [C44H80NO8P+H] 1+) and stop.
Result :: 287.6 Å²
